Molecular target: Peptidyl-prolyl cis-trans isomerase NIMA-interacting 1 (Homo sapiens)
Experiment: qHTS Assay to Find Inhibitors of Pin1; also: % is scaled to controls: 0 for no effect and ±100 for the full control effect
Settings: Pin1 FP peptide displacement, HiFluor488, 10 min; series mostly up to 115 µM
The campaign covered roughly 390,000 compounds. About 35 (0.009%) were called active. About 6% were inconclusive and are not listed. Only a selection was taken, and actives are over-represented in it overall.
measured attribute: activity, negative = inhibition

>>> observed("COc1cccc(C2C(C(=O)Nc3ccc(C)cc3C)=C(C)Nc3c(C(=O)Nc4ccccc4)cnn32)c1 (stereo not given)")
"inactive"
>>> observed("C=C1CCN(C(CC(C)C)C(=O)N2CCOCC2)S(=O)(=O)c2ccccc21 (stereo not given)")
"inactive"
>>> observed("Cc1ccc(-c2nc(=N)sn2Cc2ccccc2)cc1")
"inactive"
>>> observed("Cc1c(Cl)cccc1NC(=O)CCS(=O)(=O)c1ccc2c(c1)oc(=O)n2C")
"inactive"
>>> observed("CC(C)Oc1cccc(-c2cnc(N3CCC(C(N)=O)CC3)s2)c1")
"inactive"

---

Target: Peptidyl-prolyl cis-trans isomerase NIMA-interacting 1 (Homo sapiens)
Assay: qHTS Assay to Find Inhibitors of Pin1; also: % is scaled to controls: 0 for no effect and ±100 for the full control effect
Conditions: Pin1 FP peptide displacement, HiFluor488, 10 min; series mostly up to 115 µM
Screen size: about 390,000 compounds; about 35 (0.009%) were called active. About 6% were inconclusive and are not listed. The entries come from a sample that favours actives as a whole.
measured attribute: activity, negative = inhibition

>>> observed("O=C(c1ccc2c(c1)N(Cc1ccccc1)C(=O)c1ccccc1S2(=O)=O)N1CCC(Cc2ccccc2)CC1")
"inactive"
>>> observed("COc1ccc(OC)c(NC(=O)C2CCN(S(=O)(=O)c3ccc(C)cc3)CC2)c1")
"inactive"
>>> observed("O=C1CCc2cc(S(=O)(=O)Nc3cccc(Oc4ccccc4)c3)ccc2N1")
"inactive"
>>> observed("CCCc1cc(=O)n2[nH]c(NCc3ccc(CC)cc3)nc2n1")
"inactive"
>>> observed("Cc1cc(C)n2ncc(C(=O)Nc3cccc(C#N)c3)c2n1")
"1.24% [at 28.7 µM] (inactive)"
